Consider the following compounds; for each one, report its NF-kB reporter.
# Test system: RAW-Dual (murine macrophage reporter line)
# protocolText: NF-kB reporter (SEAP) activity fold change vs agonist alone; higher = enhanced NF-kB activity
# conditionSummary: modulator concentration 10 µM; agonist: MPLA […]

Check out these entries, answers already filled in.
{"columns": ["compound", "targetOrTestSystem", "NF-kB reporter"],
 "data": [
  ["O=C(Cc1ccc([N+](=O)[O-])cc1)NN=Cc1ccncc1", "RAW-Dual (murine macrophage reporter line)", 1.03],
  ["CN1CCN(C(=O)c2cc(-c3ccccc3)nc3ccccc23)CC1", "RAW-Dual (murine macrophage reporter line)", 0.957],
  ["CC(C)Oc1ccc(C(=O)N2CCC(c3ccccc3)S(=O)(=O)CC2)cc1 (stereo not drawn)", "RAW-Dual (murine macrophage reporter line)", 0.876],
  ["COc1ccc(-c2cc(=O)c3c(O)cc(O)cc3o2)cc1O", "RAW-Dual (murine macrophage reporter line)", 1.3],
  ["CN1C(C(=O)Nc2ccccn2)=C(O)c2ccccc2S1(=O)=O", "RAW-Dual (murine macrophage reporter line)", 1.11]
]}

For every item below, please supply its NF-kB reporter.
1. Cc1ccc(C2(c3ccc(C)cc3)CC2C(=O)Nc2cccnc2)cc1 (stereo not drawn)
2. CCCCC1=NC2(CCCC2)C(=O)N1Cc1ccc(-c2ccccc2-c2nnn[nH]2)cc1 [Prestw-1736]
3. CCCOc1cccc(C(=O)Nc2scc(-c3ccccc3)c2C(=O)OC(C)C)c1

1: 0.82; 2: 0.952; 3: 2.23

====

# Tested on: RAW-Dual (murine macrophage reporter line)
# protocolText: NF-kB reporter (SEAP) activity fold change vs agonist alone; higher = enhanced NF-kB activity
# conditionSummary: modulator concentration 10 µM; agonist: CpG ODN 1826 0.5 ug/mL
testReadout: NF-kB reporter
Answers are plain numbers.

Some compounds with recorded NF-kB reporter:
{"columns": ["compound", "observedResult"],
 "data": [
  ["O=C1C(CCC(O)c2ccc(F)cc2)C(c2ccc(O)cc2)N1c1ccc(F)cc1 (stereo not given)", 1.09],
  ["COc1ccc(Cl)cc1C(=O)NCCc1ccc(S(=O)(=O)NC(=O)NC2CCCCC2)cc1", 0.75]
]}

Can you give me NF-kB reporter for all of these, one by one?
1. CCc1ccc2ncc(C#N)c(Nc3cc(OC)c(OC)c(OC)c3)c2c1.Cl
2. O=C(c1ccc(F)cc1)C1CCN(CCn2c(=O)[nH]c3ccccc3c2=O)CC1

1.37
0.477

Provide each entry's NF-kB reporter from the list below.
1. CC(O)c1cn(-c2cccc(C(F)(F)F)c2)nn1 (stereo not given)
2. CCC(=O)Nc1ccc(N2CCOCC2)c(Cl)c1
3. CCOC(=O)C1=C(C)NC(C)=C(C(=O)OC)C1c1ccccc1 (stereo not given)
4. CC(=O)C1=C(C)OC2(O)c3ccccc3C(=O)C12O (stereo not given)
5. C[C@@H](O[C@H]1OCCN(Cc2nc(=O)[nH][nH]2)[C@H]1c1ccc(F)cc1)c1cc(C(F)(F)F)cc(C(F)(F)F)c1 [Prestw-1600]
6. COc1ccc(C=NNC(=O)CSc2nnc(-c3ccncc3)n2-c2ccccc2)cc1OC

[1.05, 1.11, 0.884, 0.903, 0.345, 1.05]

====

# Tested on: RAW-Dual (murine macrophage reporter line)
# protocolText: viability score (confluency relative to resting cells, overnight) (fraction); higher = more viable, active = viable (0.7 or more)
# conditionSummary: modulator concentration 10 µM
Give viability score for every item shown.
Give bare numbers.

{"columns": ["molecule", "viability score"],
 "data": [
  ["O=C(CCCN1C(=O)c2cccc3cccc(c23)C1=O)NCCO", 0.995],
  ["C=CCc1ccc(OCCCOc2ccccc2C(C)=O)c(OC)c1", 0.99],
  ["Cc1cc(C(=O)Nc2ccc(-n3nnn(C)c3=O)cc2)c(C)o1", 1.01]
]}

Working through the 4 molecules below one at a time, give viability score for each.
1. O=C(NCC1(c2ccc(F)cc2)CCOCC1)c1cnc2ccccc2n1
2. CC(NC(=O)C1CCN(S(=O)(=O)N2CCCC2)CC1)c1ccc(F)cc1 (configuration not stated)
3. O=C(COCc1ccccc1)NC1CCC(F)(F)CC1
4. O=C(O)CCCCCN1C(=O)c2cccc3cccc(c23)C1=O

1: 1.01; 2: 0.992; 3: 1.01; 4: 1.01

Hi team, please reply with viability score for each item in this list.
1. CCOC(=O)C(CCc1ccccc1)NC1CCc2ccccc2N(CC(=O)O)C1=O.Cl (configuration not stated)
2. O=C(c1ccc(OC(F)(F)F)cc1)N1CCC(Oc2cccnn2)CC1
3. CCC(C)NC(=O)C(=O)Nc1cccc(C(F)(F)F)c1 (configuration not stated)
4. COc1cccc(NC(=O)CN(c2cccc(Br)c2)S(C)(=O)=O)c1
5. O=C(Cc1ccc([N+](=O)[O-])cc1)NN=Cc1ccccn1
6. O=C(Nc1cc(C(F)(F)F)cc(C(F)(F)F)c1)c1ccco1
7. Cc1ccc(CN2C3=NCCCN3c3ccccc32)cc1.Cl

1
1.01
1.02
0.998
1
1.01
0.999

Return reported viability score values for all items listed beneath this line.
1. O=C(c1ccc(Cl)cc1)N(c1ccccc1)C1C=CS(=O)(=O)C1 (configuration not stated)
2. CCN(CC)CCN1C(=O)C(O)=C(C(=O)c2ccc(C)cc2)C1c1ccccc1 (configuration not stated)
3. Cc1ncsc1C(=O)NC1CCC(F)(F)CC1
4. CC(N)C12CC3CC(CC(C3)C1)C2 (configuration not stated)
5. CNc1ccc([N+](=O)[O-])cc1-n1cnc(-c2ccc([N+](=O)[O-])cc2)c1
6. COc1cccc(-c2csc(NC(=O)C3CC3)n2)c1
7. COc1ccc(C2OCC3C(c4ccc(OC)c(OC)c4)OCC23)cc1OC (configuration not stated)

1: 0.981; 2: 0.996; 3: 0.999; 4: 1.01; 5: 1.02; 6: 1; 7: 1.01

Field: viability score. Fill in for each record below.
1. COc1ccc(CC(=O)Nc2ccc(C)c(N3CCCCC3=O)c2)cc1OC
2. Brc1ccc(-c2cc(-c3ccccc3)nc(N3CCCCC3)n2)cc1
3. COCCOC(=O)C1=C(C)NC(=S)NC1c1ccccc1OC (configuration not stated)

1
1
1.01
